Reported OD450 nm is given for each of the following binders.
# assay-target: HRgpA-6H (Porphyromonas gingivalis) (UniProt P28784)
# method: ELISA, coated HRgpA-6H
Keep it simple and answer with nothing but the number.

Field: example entries. Status: answers known.
Ask: What value of OD450 nm has been recorded for this entry: KB001 mouse Fab VH Y106K (Fab, V domains shown) VH: EVQLKQSGPGLVAPSQSLSITCTVSGFSLSIYSVHWVRQPPGKGLEWLGMIWGGGSSDYNSALKSRLSISKDNSKSQVFLKMNSLQTDDTAMYYCARNGNFYAMDKWGQGTSVTVSS VL: QIVLTQSPAIMSASLGERVTMTCTASSSVSSSFLHWYQQKPGSSPQLWIYSTSNLASGVPARFSGSGSGTSYSLTISSMEAEDAATYYCHQYHHSPYIYTFGGGTKLEIK
Result: 0.807

Ask: For KB001 mouse Fab VL T100Y (Fab, V domains shown) VH: EVQLKQSGPGLVAPSQSLSITCTVSGFSLSIYSVHWVRQPPGKGLEWLGMIWGGGSSDYNSALKSRLSISKDNSKSQVFLKMNSLQTDDTAMYYCARNGNFYAMDYWGQGTSVTVSS VL: QIVLTQSPAIMSASLGERVTMTCTASSSVSSSFLHWYQQKPGSSPQLWIYSTSNLASGVPARFSGSGSGTSYSLTISSMEAEDAATYYCHQYHHSPYIYYFGGGTKLEIK then?
Result: 0.546

Ask: For KB001 mouse Fab VH Y106T (Fab, V domains shown) VH: EVQLKQSGPGLVAPSQSLSITCTVSGFSLSIYSVHWVRQPPGKGLEWLGMIWGGGSSDYNSALKSRLSISKDNSKSQVFLKMNSLQTDDTAMYYCARNGNFYAMDTWGQGTSVTVSS VL: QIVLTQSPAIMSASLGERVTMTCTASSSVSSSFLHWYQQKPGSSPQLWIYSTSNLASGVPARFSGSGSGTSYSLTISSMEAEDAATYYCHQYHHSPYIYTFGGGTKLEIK then?
Result: 0.827

***
Ask: What value of OD450 nm has been recorded for this entry: KB001 mouse Fab VL N54L (Fab, V domains shown) VH: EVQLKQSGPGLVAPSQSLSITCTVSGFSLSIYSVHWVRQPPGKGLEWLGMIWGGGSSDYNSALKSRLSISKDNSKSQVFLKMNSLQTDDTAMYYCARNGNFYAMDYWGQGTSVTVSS VL: QIVLTQSPAIMSASLGERVTMTCTASSSVSSSFLHWYQQKPGSSPQLWIYSTSLLASGVPARFSGSGSGTSYSLTISSMEAEDAATYYCHQYHHSPYIYTFGGGTKLEIK
Result: 0.774

Ask: For KB001 mouse Fab VL S30E (Fab, V domains shown) VH: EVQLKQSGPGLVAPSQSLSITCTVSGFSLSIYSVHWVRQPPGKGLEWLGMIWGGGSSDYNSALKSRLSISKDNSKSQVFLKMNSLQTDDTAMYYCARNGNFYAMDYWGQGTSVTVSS VL: QIVLTQSPAIMSASLGERVTMTCTASSSVESSFLHWYQQKPGSSPQLWIYSTSNLASGVPARFSGSGSGTSYSLTISSMEAEDAATYYCHQYHHSPYIYTFGGGTKLEIK then?
Result: 0.813

Ask: For KB001 mouse Fab VH S28N (Fab, V domains shown) VH: EVQLKQSGPGLVAPSQSLSITCTVSGFNLSIYSVHWVRQPPGKGLEWLGMIWGGGSSDYNSALKSRLSISKDNSKSQVFLKMNSLQTDDTAMYYCARNGNFYAMDYWGQGTSVTVSS VL: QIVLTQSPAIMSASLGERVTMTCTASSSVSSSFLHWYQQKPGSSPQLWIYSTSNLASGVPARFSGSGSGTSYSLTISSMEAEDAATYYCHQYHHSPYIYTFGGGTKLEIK then?
Result: 0.53

Ask: For KB001 mouse Fab VH Y106Q (Fab, V domains shown) VH: EVQLKQSGPGLVAPSQSLSITCTVSGFSLSIYSVHWVRQPPGKGLEWLGMIWGGGSSDYNSALKSRLSISKDNSKSQVFLKMNSLQTDDTAMYYCARNGNFYAMDQWGQGTSVTVSS VL: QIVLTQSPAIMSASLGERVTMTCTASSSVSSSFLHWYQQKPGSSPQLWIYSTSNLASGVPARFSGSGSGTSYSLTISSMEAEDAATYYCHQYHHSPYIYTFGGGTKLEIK then?
Result: 0.792

Ask: For KB001 mouse Fab VL S27Y (Fab, V domains shown) VH: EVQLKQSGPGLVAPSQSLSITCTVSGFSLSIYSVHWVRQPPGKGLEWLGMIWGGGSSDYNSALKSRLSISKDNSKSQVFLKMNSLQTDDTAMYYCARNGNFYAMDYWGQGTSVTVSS VL: QIVLTQSPAIMSASLGERVTMTCTASYSVSSSFLHWYQQKPGSSPQLWIYSTSNLASGVPARFSGSGSGTSYSLTISSMEAEDAATYYCHQYHHSPYIYTFGGGTKLEIK then?
Result: 0.617

Ask: For KB001 mouse Fab VH D58G (Fab, V domains shown) VH: EVQLKQSGPGLVAPSQSLSITCTVSGFSLSIYSVHWVRQPPGKGLEWLGMIWGGGSSGYNSALKSRLSISKDNSKSQVFLKMNSLQTDDTAMYYCARNGNFYAMDYWGQGTSVTVSS VL: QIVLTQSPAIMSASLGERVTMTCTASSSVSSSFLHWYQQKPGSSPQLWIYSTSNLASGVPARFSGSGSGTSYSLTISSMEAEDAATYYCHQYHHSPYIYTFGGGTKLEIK then?
Result: 0.778

Ask: For KB001 mouse Fab VL H90W (Fab, V domains shown) VH: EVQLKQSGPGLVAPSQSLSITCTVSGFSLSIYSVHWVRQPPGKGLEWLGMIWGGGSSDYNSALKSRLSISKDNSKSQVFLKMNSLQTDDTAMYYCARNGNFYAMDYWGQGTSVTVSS VL: QIVLTQSPAIMSASLGERVTMTCTASSSVSSSFLHWYQQKPGSSPQLWIYSTSNLASGVPARFSGSGSGTSYSLTISSMEAEDAATYYCWQYHHSPYIYTFGGGTKLEIK then?
Result: 0.913
